# protein stability index listing for each entry below
- Protocol notes: protein stability index of a GFP-peptide fusion (yeast GPS) (PSI 1-4); higher = more stable; sorted into four equal gates, so the index is relative within each strain
- Particulars: pdr5∆

Use these answered entries as a reference point.
[
  {
    "Residues": "NSESDSKSDSDSEERDP [ITC1]",
    "Readout label": "protein stability index",
    "Result": 2.99
  },
  {
    "Residues": "AELDLMSGILHCEDKDY [RPN6]",
    "Readout label": "protein stability index",
    "Result": 3.08
  },
  {
    "Residues": "QQQSSQNTVPNVLNQIN [GAL11]",
    "Readout label": "protein stability index",
    "Result": 1.82
  }
]

Request: Endpoint output: protein stability index of ERGFACIPLVGISVPFH [FAS1] . Value?
Result: 1.32

Request: Given the sequence EDETVKVAQLRQTGPAK [NSL1] , what is its reported protein stability index?
Result: 2.83

Request: So what's the measured protein stability index for this one? SINVHSNNITSGLNRAI [RET1]
Result: 3.24

Request: // protein stability index lookup, key: FGHLMHYGNEHIRRMVP [RPN1]
Result: 1.82

Request: Query (sequence): YLTPPHECRLRDMTYSA [RET1] ; field requested: protein stability index
Result: 3.02
